This collection of values is drawn from PubChem BioAssay (NCI).

- Test system: SNB-19 CNS
- experiment.description: NCI tumour cell line growth inhibition, 48 h; in the data active = GI50 below about 0.43 µM; inactive = the rest
Classes used: 1 = active, -1 = inactive

compound | category
Nc1nc(Sc2ccc([N+](=O)[O-])c3nonc23)c2ncn(C3OC(CO)C(O)C3O)c2n1 (stereo not drawn) | -1
COc1ccc(-c2cnc(-c3ccc(OC)cc3)n2-c2cc(OC)c(OC)c(OC)c2)cc1 | -1
CC(C)[C@@]12C[C@@H](OC(=O)C3CO3)[C@@](C)(O1)[C@@H]1CC[C@@H](C)[C@H]1[C@@H]2OC(=O)/C=C/c1ccccc1 (stereo partly drawn) | -1
CCCN(CCC)c1ccc(/C=N/NC(=O)c2cccnc2)c(C)c1 | -1
O=C1CN=C(c2ccc[nH]2)c2cc(Cl)ccc2N1 | -1
Cc1nnn(C)c1-c1cnc2c3ccc(C(C)(C)O)cc3n([C@H](c3ccccc3)C3CCOCC3)c2c1 | 1
O=C(Nc1ccc(I)cc1F)c1cc(Br)ccc1O | 1
COc1ccc(Nc2ncc(I)c(NCCCNC(=O)C3CCC3)n2)cc1 | -1

---

- Test system: U251 CNS
- experiment.description: NCI tumour cell line growth inhibition, 48 h

compound | TGI
CCOC(=O)C(C)NC(=O)NC12CC3CC(CC(F)(C3)C1)C2 (stereo not given) | > 100 µM
CCn1nc(C2CCN(C(=O)CCO)CC2)nc1-c1cnc(N)c(-c2nnc(C(C)(C)C)o2)n1 | > 100 µM
COc1ccc(C)c2sc(N(Cc3cccnc3)C(=O)c3ccc(C#N)cc3)nc12 | > 100 µM
Nc1nc(Cl)c(N)c(NCC2(CO)CCC(OCc3ccccc3)C2)n1 (stereo not given) | > 100 µM
COc1cccc2c1C(=O)c1c(O)c3c(c(O)c1C2=O)C[C@](O)(C(=O)CO)C[C@H]3O[C@@H]1C[C@@H](NC(=O)CCCN(C)C2(c3ccc(F)cc3)CC3CCC2C3)[C@H](O)[C@@H](C)O1 (stereo not given in full) | 1.52 µM
CCCCCCCCCCCCc1ccc(S(=O)(=O)O)cc1.[Cu+2] | > 100 µM
Cc1ccc(NC(=O)C2C3C=CC(O3)C2C(=O)O)cc1 (stereo not given) | > 100 µM
O=CN/C=C/c1ccccc1 | > 100 µM
CC(=O)OC(C(=O)O)C(OC(C)=O)C(OC(C)=O)C(OC(C)=O)C(=O)O (stereo not given) | > 100 µM
O=C1CN=C(c2ccc[nH]2)c2cc(Cl)ccc2N1 | > 100 µM

---

- Tested on: OVCAR-5 ovarian
- experiment.description: NCI tumour cell line growth inhibition, 48 h
Recorded TGI by entry
measure.name: TGI

compound | observed.value
O=S(Cc1ccccc1)c1ccccc1Cn1cccc1 (stereo not given) | > 100 µM
CCOC(=O)C(C)NC(=O)NC12CC3CC(CC(F)(C3)C1)C2 (stereo not given) | > 100 µM
COc1ccc(OC2(c3cc(OC)ccc3OC)OC(=O)c3ccccc32)cc1 (stereo not given) | > 100 µM
Cc1[nH]c(C(=O)Nc2ccc(C(=O)NCCN)cc2OC(C)C)c(Cl)c1Cl | 3.11 µM
CCc1cccc(C(C)C)c1NC(=O)/C(=N\NC(N)=O)C(C(=O)OC)c1cnc2ccccc2n1 (stereo not given) | > 100 µM

---

- Test system: SK-MEL-2 melanoma
- experiment.description: NCI tumour cell line growth inhibition, 48 h
measure.name: TGI (µM)

compound | target.desc | value.operator | observed.value
Cn1cnc([N+](=O)[O-])c1S(=O)(=O)Oc1ccc(Cl)cc1 | SK-MEL-2 melanoma | = | 61.1
CCOC(=O)NC(=O)c1cn(CCSCCOC(=O)NCCCCCCNC(=O)OCCSCCn2cc(C(=O)NC(=O)OCC)c(=O)n(C)c2=O)c(=O)n(C)c1=O | SK-MEL-2 melanoma | > | 100
CC1(C)CN(CC(=O)O)CC(Cc2ccc(OCC(=O)O)cc2)N(CC(=O)O)CC(C)(C)SS1 (stereo not given) | SK-MEL-2 melanoma | > | 100
FC(F)(F)c1ccc2c(-c3cc[nH]c3)ccnc2c1 | SK-MEL-2 melanoma | > | 100
O=C1c2cc3c(cc2CC12Cc1ccccc1C2)CCC3 | SK-MEL-2 melanoma | = | 51.8
CC1(C)C(=O)/C=C\C(=O)C(C)(C)C2=CC=C(O2)C(C)(C)C(=O)C(Br)C(Br)C(=O)C(C)(C)C2=CC=C1O2 (stereo not given) | SK-MEL-2 melanoma | > | 100
Cc1[nH]c2ccccc2c1CO | SK-MEL-2 melanoma | = | 36.6
COc1ccc(Sc2[nH]c(C=O)c3ccccc23)cc1 | SK-MEL-2 melanoma | = | 32.4
Cc1cc(C)c(/C=C2\C(=O)Nc3ccccc32)[nH]1 | SK-MEL-2 melanoma | > | 100
CCOc1ccc(-c2nc3ccc(-c4nc5ccc(N6CCN(C)CC6)cc5[nH]4)cc3[nH]2)cc1 | SK-MEL-2 melanoma | = | 2.49

---

- Tested on: IGROV1 ovarian
- experiment.description: NCI tumour cell line growth inhibition, 48 h; in the data active = GI50 below about 0.43 µM; inactive = the rest
Classes used: active, inactive

compound | category
COc1ccc(Nc2ncc(I)c(NCCCNC(=O)C3CCC3)n2)cc1 | inactive
COc1ccc(C2c3ccc4ccccc4c3Oc3ncn(CCCn4ccnc4)c(=N)c32)cc1OC (stereo not given) | inactive
CCn1nc(C2CCN(C(=O)CCO)CC2)nc1-c1cnc(N)c(-c2nnc(C(C)(C)C)o2)n1 | active
COc1ccc(Sc2[nH]c(C=O)c3ccccc23)cc1 | inactive
COc1cc(-n2cc(-c3ccc(Cl)cc3)n(-c3ccccc3)c2=O)cc(OC)c1OC | inactive
COc1ccc(C)c2sc(N(Cc3cccnc3)C(=O)c3ccc(C#N)cc3)nc12 | inactive
CCCN(CCC)c1ccc(/C=N/NC(=O)c2cccnc2)c(C)c1 | inactive
Clc1cc(Br)ccc1-c1ccc(CNCC2CCNCC2)o1 | inactive
CC(C)CCN(CCC(C)C)CC(=O)Nc1ccc(S(=O)(=O)c2ccc(NC(=O)CN(CCC(C)C)CCC(C)C)cc2)cc1 | inactive
c1cc[c]([Ge]([O]c2cccc3cccnc23)([c]2ccccc2)[c]2ccccc2)cc1 | inactive
CC(C)(C)c1cc(C[P+](c2ccccc2)(c2ccccc2)c2ccccc2)cc(C(C)(C)C)c1O | inactive
CC[C@@]1(O)CC(OC2CC(N3CCOCC3)C(O)C(C)O2)c2c(O)c3c(c(O)c2[C@H]1O)C(=O)c1cccc(O)c1C3=O (stereo not given in full) | active
COc1cc2c3c(n(CCCN=[N+]=[N-])c(=O)c2cc1OC)-c1ccc([N+](=O)[O-])cc1C3=O | active
CCc1cc2c(c(OCC(F)(F)F)c(C(=O)NC3CCN(C(=O)CO)CC3)n2C)c(=O)n1CC(=O)c1ccccc1 | inactive
O=C(COc1ccccc1)NNc1ccccc1 | inactive

---

Recorded TGI by entry
- System: NCI-H23 lung
- experiment.description: NCI tumour cell line growth inhibition, 48 h
measure.name: TGI (µM)

compound | target.desc | measure.name | value.operator | observed.value
C/C(=C/CC[C@](C)(OC1OC(CO)C(O)C(O)C1O)[C@H]1CC[C@]2(C)[C@@H]1CC[C@@H]1[C@@]3(C)CC[C@H](O)C(C)(C)[C@@H]3C[C@H](O)[C@]12CO)CO (stereo partly specified) | NCI-H23 lung | TGI | > | 100
COC(=O)c1c2c(c(C)[n+]([O-])c1C)C(=O)C(NCc1ccccc1)=CC2=O | NCI-H23 lung | TGI | = | 6.09
COc1ccc(Nc2ncc(I)c(NCCCNC(=O)C3CCC3)n2)cc1 | NCI-H23 lung | TGI | = | 46.9
NC(=O)N/N=C\CC(O)(C(F)(F)Cl)C(F)(F)Cl | NCI-H23 lung | TGI | > | 10
Cn1cnc([N+](=O)[O-])c1Sc1n[nH]c(-c2ccc(Cl)cc2)n1 | NCI-H23 lung | TGI | = | 37.9
O=C1c2cc3c(cc2CC12Cc1ccccc1C2)CCC3 | NCI-H23 lung | TGI | > | 100

---

- Tested on: SN12C renal
- experiment.description: NCI tumour cell line growth inhibition, 48 h; in the data active = GI50 below about 0.43 µM; inactive = the rest
Classes used: active, inactive

entry.smiles | target.desc | category
COc1cc2c3c(n(CCCN=[N+]=[N-])c(=O)c2cc1OC)-c1ccc([N+](=O)[O-])cc1C3=O | SN12C renal | inactive
COc1ccc(Sc2[nH]c(C=O)c3ccccc23)cc1 | SN12C renal | inactive
CC(C)(C)c1cc(C[P+](c2ccccc2)(c2ccccc2)c2ccccc2)cc(C(C)(C)C)c1O | SN12C renal | active
COc1cc(OC)c(C(=O)/C=C/c2ccc(C#N)cc2)c(OC)c1 | SN12C renal | inactive

---

Recorded TGI by entry
- System: SN12C renal
- experiment.description: NCI tumour cell line growth inhibition, 48 h

compound | target.desc | TGI
N#CC1(CCCI)CCCC1 | SN12C renal | 26.3 µM
Oc1nc(N2CCOCC2)sc1/C=C1\C=Nc2ccccc21 | SN12C renal | > 100 µM
N#CC(O)CCOCc1ccccc1 (centres undefined) | SN12C renal | > 100 µM
CN(C)c1ccc(N=C2N=C(Nc3ccccc3)C(=Nc3ccccc3)S2)cc1 | SN12C renal | > 100 µM
CC(C)C1=Cc2ccc3c(c2C(=O)C1=O)CCCC3 | SN12C renal | 13.1 µM
COC(=O)C1(Cc2ccccc2)Cc2ccccc2C1O (centres undefined) | SN12C renal | > 100 µM
CC(=O)NC(CCCNC(=O)N(C)N=O)C(=O)NCc1ccccc1 (centres undefined) | SN12C renal | > 100 µM
CC(=O)OCC1OC(SC2=N/C(=C\c3ccc(Br)s3)C(=O)N2c2ccccc2)C(OC(C)=O)C(OC(C)=O)C1OC(C)=O (centres undefined) | SN12C renal | > 100 µM
O=c1c2ccccc2n2c(-c3ccccc3O)nnc2n1-c1ccccc1 | SN12C renal | > 100 µM
COc1cc2c(c(OC)c1OC)-c1ccc(SC)c(=O)cc1[C@@H](NC(=O)c1cccc([N+](=O)[O-])c1)CC2 | SN12C renal | 21.6 µM
COCN1C(=O)[C@@H]2C[C@@H](O)CN2C(=O)c2ccccc21 | SN12C renal | > 100 µM
O=C1CN=C(c2ccc[nH]2)c2cc(Cl)ccc2N1 | SN12C renal | > 100 µM
COc1cc(/C=C2\CCC(C)C3=C2N=c2s/c(=C/c4ccc(Cl)cc4)c(=O)n2C3c2cc(OC)c(OC)c(OC)c2)cc(OC)c1OC (centres undefined) | SN12C renal | > 100 µM
O=S(O)O.O=S(O)O.[Co].[NH2-].[NH2-].[NH2-].[NH2-] | SN12C renal | > 100 µM
CCCCCSc1ccc2nc(NC(=O)OCC)sc2c1 | SN12C renal | > 100 µM
COc1ccccc1C#C/C=C\C#Cc1ccccc1C#N | SN12C renal | > 100 µM
O=S1Nc2cccc(C(F)(F)F)c2S1 (centres undefined) | SN12C renal | > 100 µM
CCCCCCCCCCCCCCCCc1c(C(=O)OC)nc(NC#N)[nH]c1=O | SN12C renal | > 25 µM
O=C(Nc1ccc(Cl)c(C(F)(F)F)c1)Nc1ccc(-c2cccnc2)cc1N1CCC(CO)CC1 | SN12C renal | 19 µM
COc1cc(-n2cc(-c3ccc(Cl)cc3)n(-c3ccccc3)c2=O)cc(OC)c1OC | SN12C renal | > 72.5 µM
CCOC(=O)c1cc(=O)c2cccc3c2n1CCS3 | SN12C renal | > 100 µM
NC(=O)N/N=C(\CC1OC(=O)c2ccccc21)c1ccc([N+](=O)[O-])cc1 (centres undefined) | SN12C renal | > 100 µM
O=CN/C=C/c1ccccc1 | SN12C renal | > 100 µM
CC(=O)NC(CCCCNCc1ccccc1)C(=O)NCc1ccccc1 (centres undefined) | SN12C renal | > 100 µM
Cc1cc(-c2nc3sc(C)cn3c2/C=N/N=C(N)N)c(C)s1 | SN12C renal | 28.3 µM
Cc1cc(C)n(-c2nc(-n3nc(C)cc3C)nc(-n3nc(C)cc3C)n2)n1 | SN12C renal | > 100 µM
CCOC(=O)c1c(CN2CCNCC2)nc2ccc(Cl)cc2c1-c1ccccc1 | SN12C renal | 15 µM
N#CC(Sc1ccccc1)C(N)=O (centres undefined) | SN12C renal | > 100 µM
CCc1cc2c(c(OCC(F)(F)F)c(C(=O)NC3CCN(C(=O)CO)CC3)n2C)c(=O)n1CC(=O)c1ccccc1 | SN12C renal | > 100 µM
CC(NNC(=O)c1ccncc1)c1ccccc1 (centres undefined) | SN12C renal | > 100 µM
O=C1c2ccccc2CC12Cc1cc3c(cc1C2)CCC3 | SN12C renal | > 100 µM
CCOC(=O)C1CCCc2sc(N)c(C#N)c21 (centres undefined) | SN12C renal | > 100 µM
O=C(NC(CS)C(=O)O)c1c2ccccc2nc2ccccc12 (centres undefined) | SN12C renal | > 100 µM
COc1cc(/C=N/NC(=O)c2c(Cl)c(Cl)c(Cl)c(Cl)c2-c2nc3ccc(C(=O)c4ccccc4)cc3[nH]2)ccc1O | SN12C renal | > 100 µM
COc1ccc2c(n1)Sc1nc3ccccc3nc1N2 | SN12C renal | 71.6 µM
CCNCC(=O)Nc1ccc2c(c1)C(=O)c1ccc(NC(=O)CNCC)cc1C2=O | SN12C renal | 6.45 µM
Cc1ccc(/C(=N/NS(=O)(=O)c2cc(C)c(Cl)cc2Cl)Sc2cc(Cl)c(C)cc2S(N)(=O)=O)cc1 | SN12C renal | > 100 µM
COC(=O)CCc1n(Cc2ccc3ccccc3c2)c2ccccc2[n+]1Cc1ccc2ccccc2c1 | SN12C renal | 2.19 µM
OCC1OC(N2C=C(c3nc4ccccc4s3)C3C=CC=CC32)C(O)C(O)C1O (centres undefined) | SN12C renal | > 50 µM
O=C1c2cc3c(cc2CC12Cc1ccccc1C2)CCC3 | SN12C renal | > 100 µM
CCOC(=O)C1CC(=O)C=C2CCCCC21 (centres undefined) | SN12C renal | > 100 µM
O=C(CSCC(=O)N/N=C\c1ccc(F)cc1F)N/N=C\c1ccc(F)cc1F | SN12C renal | > 100 µM
COc1cc(OC)c(C(=O)/C=C/c2ccc(C#N)cc2)c(OC)c1 | SN12C renal | 7.91 µM
CCOc1ccccc1/C=N\N=C(N/N=C/c1ccccc1OCC)N/N=C/c1ccccc1OCC | SN12C renal | > 100 µM
